System: MDA-MB-231
testMethodNotes: Cytotoxicity against human MDA-MB-231 cells by SRB assay
Type: functional
Reported TGI values are given for each entry in this list.

Some compounds with recorded TGI:
COC1=C(Br)[C@H](O)[C@@]2(C=C1Br)CC(C(=O)NCCCCCNC(=O)C1=NO[C@]3(C=C(Br)C(OC)=C(Br)[C@@H]3O)C1)=NO2	> 10 µg/mL
COC1(OC)C(Br)=C[C@@]2(CC(C(=O)NCCCCCNC(=O)C3=NO[C@]4(C=C(Br)C(OC)(OC)[C@@H](Br)[C@@H]4O)C3)=NO2)[C@@H](O)[C@@H]1Br	> 10 µg/mL
COC1=C(Br)[C@H](O)[C@@]2(C=C1Br)CC(C(=O)NCCCCNC(=O)C1=NO[C@]3(C=C(Br)C(OC)=C(Br)[C@@H]3O)C1)=NO2	> 10 µg/mL

Test system MDA-MB-231; read-out TGI; what value for O=C(NCCCCCNC(=O)C1=NO[C@]2(C=C(Br)C(=O)[C@@H](Br)[C@@H]2O)C1)C1=NO[C@]2(C=C(Br)C(=O)[C@@H](Br)[C@@H]2O)C1 ?
2.1 µM

Request: TGI, test system MDA-MB-231, entry COC1=C(Br)[C@H](O)[C@@]2(C=C1Br)CC(C(=O)NCCCCCNC(=O)C1=NO[C@]3(C=C(Br)C(=O)[C@@H]4O[C@@H]43)C1)=NO2
5.8 µM

Can you look up TGI on MDA-MB-231 for COC1=C(Br)[C@H](O)[C@@]2(C=C1Br)CC(C(=O)NCCCCNC(=O)C1=NO[C@]3(C=C(Br)C(=O)[C@H](Br)[C@@H]3O)C1)=NO2 ?
4.7 µM

Where do these numbers come from? They come from ChEMBL document CHEMBL1143705.
